METHOD_SUMMARY: Caco-2 permeability and efflux study
Type: in vitro ADME, human
EXPERIMENTAL_SETUP: human; Caco-2, basolateral to apical; read-out: Papp B-A
ENDPOINT_NAME: Papp B→A (×10⁻⁶ cm/s)

Field: example entries. Status: answers known.
Task: Query: Papp B→A; subject: `CN(C)c1cc[n+](CCCCCCCCCCCCCC[n+]2ccc(N3CCNCC3)cc2)cc1`
Output: 0.3

Task: What Papp B→A value was documented for this molecule, `CN(C)c1cc[n+](CCCCCCCCCCCC[n+]2ccc(N(C)C)cc2)cc1` ?
Output: 0.9

I = CC(=O)NCCCCC(NC(=O)OC(C)(C)C)C(=O)N1CCN(c2cc[n+](CCCCCCCCCCCCCC[n+]3ccc(N(C)C)cc3)cc2)CC1 (stereo not shown)
II = CN(C)c1cc[n+](CCCCCCCCCCCCCC[n+]2ccc(N(C)C)cc2)cc1.[Br-].[Br-] [CK14, reference compound]
Task: Lower Papp B→A: I or II ? # respond with the chosen item's label
Output: I
(I: 0.3 ×10⁻⁶ cm/s, II: 8.7 ×10⁻⁶ cm/s)

----------
TESTED_TARGET: CHK b (CHKB) (Homo sapiens, UniProt Q9Y259)
Sequence (Q9Y259 whole entry): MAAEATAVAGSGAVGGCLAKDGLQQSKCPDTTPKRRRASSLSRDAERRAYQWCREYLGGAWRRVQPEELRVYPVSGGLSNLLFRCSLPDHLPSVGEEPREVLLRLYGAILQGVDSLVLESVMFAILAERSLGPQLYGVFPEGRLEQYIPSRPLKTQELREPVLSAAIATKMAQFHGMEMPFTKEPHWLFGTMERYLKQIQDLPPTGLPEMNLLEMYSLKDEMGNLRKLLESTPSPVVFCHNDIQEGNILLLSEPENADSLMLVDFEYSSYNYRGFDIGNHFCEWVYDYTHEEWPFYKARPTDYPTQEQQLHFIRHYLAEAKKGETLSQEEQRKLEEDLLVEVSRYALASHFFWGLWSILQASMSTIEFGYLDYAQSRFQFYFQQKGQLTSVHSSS
METHOD_SUMMARY: Lipid kinase screening (ADP-Glo), CHKB
Format: biochemical
ENDPOINT_NAME: inhibition at 10 µM (%)

# example entries with known answers
Task: I have this compound here, CN(C)c1cc[n+](CCCCCCCCCCCCCC[n+]2ccc(N3CCN(C(=O)CSC4CC(=O)N(CCC(=O)NCCCCCC(=O)NCCCCC(NC(=O)NC(CCC(=O)O)C(=O)O)C(=O)O)C4=O)CC3)cc2)cc1 (centres unmarked) , and I need its recorded inhibition at 10 µM.
Output: 3.2

Task: Quick one: inhibition at 10 µM for `CN(C)c1cc[n+](CCCCCCCCCCCC[n+]2ccc(N(C)C)cc2)cc1` ?
Output: -28.6

P = CN(C)c1cc[n+](CCCCCCCCCCCCCC[n+]2ccc(N(C)C)cc2)cc1.[Br-].[Br-] [CK14, reference compound]
Q = CC(=O)NCCCCC(NC(=O)OC(C)(C)C)C(=O)N1CCN(c2cc[n+](CCCCCCCCCCCCCC[n+]3ccc(N(C)C)cc3)cc2)CC1 (centres unmarked)
R = CN(C)c1cc[n+](CCCCCCCCCCCCCC[n+]2ccc(N3CCNCC3)cc2)cc1
Task: Endpoint returns the given compounds ordered by ascending inhibition at 10 µM. Please list the labels in the order you were asked to rank them.
Output: R, P, Q
(R: -49%, P: -33.7%, Q: -18.1%)

----------
This listing pairs compounds with measured microsomal CLint.
METHOD_SUMMARY: Human microsomal metabolic stability assay
Type: in vitro ADME
EXPERIMENTAL_SETUP: human, human liver microsome S9, human liver microsome S9; read-out: Human Microsomal Metabolic Stability: Clint

Examples with answers:
Task: Which value of microsomal CLint has been reported for CN(C)c1cc[n+](CCCCCCCCCCCCCC[n+]2ccc(N3CCNCC3)cc2)cc1 [CK146] in the records?
Output: < 14 µL/min/mg

Task: // microsomal CLint lookup, key: CN(C)c1cc[n+](CCCCCCCCCCCCCC[n+]2ccc(N(C)C)cc2)cc1.[Br-].[Br-] [CK14, reference compound]
Output: < 14 µL/min/mg

Continue with the next compound.
Task: Reported microsomal CLint for CN(C)c1cc[n+](CCCCCCCCCCCC[n+]2ccc(N(C)C)cc2)cc1 [ICL-CCIC-0019] : what is it?
Output: < 14 µL/min/mg
